Below, each entry is listed with its recorded pIC50.
- EXPERIMENTAL_SYSTEM: SRC (Homo sapiens)
- Sequence (P12931 whole entry): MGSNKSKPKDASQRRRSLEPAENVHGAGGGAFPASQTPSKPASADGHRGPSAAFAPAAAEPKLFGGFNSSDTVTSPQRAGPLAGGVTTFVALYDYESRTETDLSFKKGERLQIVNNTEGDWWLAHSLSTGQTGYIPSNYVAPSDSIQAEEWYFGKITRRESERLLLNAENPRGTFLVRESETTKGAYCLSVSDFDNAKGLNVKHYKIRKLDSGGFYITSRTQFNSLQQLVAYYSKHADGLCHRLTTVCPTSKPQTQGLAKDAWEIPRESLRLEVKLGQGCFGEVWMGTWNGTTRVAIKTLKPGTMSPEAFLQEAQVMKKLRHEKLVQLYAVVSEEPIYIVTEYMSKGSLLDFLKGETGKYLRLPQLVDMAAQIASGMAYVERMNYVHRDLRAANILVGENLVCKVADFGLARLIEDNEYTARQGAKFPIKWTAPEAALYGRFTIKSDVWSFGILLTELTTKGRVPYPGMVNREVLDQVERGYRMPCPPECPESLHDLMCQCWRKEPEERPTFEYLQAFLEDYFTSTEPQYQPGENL
- ASSAY_INFO: Inhibition of a panel of kinases, in vitro HotSpot kinase assay: SRC
- Assay type: biochemical
- ASSAY_SETUP: D-compounds panel data; 1 μM ATP
pIC50: −log10 of the molar value.

Here are 3 compounds together with their reported answers.
| COMPOUND | RESULT |
| --- | --- |
| Cc1ccc(-c2cnc([C@@H]3CCCN(c4cnc(C(N)=O)c(Nc5cc(C)ns5)n4)C3)[nH]2)cc1 [Example D-137] | 5.00 to 6.00 |
| C[C@@H]1[C@H](NC(=O)c2ccc(C3CC3)cc2)CCCN1c1cnc(C(N)=O)c(Nc2ccc(N3CCN(C)CC3)c(F)c2)n1 [Example D-146] | 7.00 to 8.00 |
| CN1CCN(C(=O)c2ccc(Nc3nc(N[C@H]4CC[C@H](NC(=O)c5ccc(C6CC6)cc5F)CC4)cnc3C(N)=O)cc2)CC1 [Example D-70] | 6.00 to 7.00 |

Exercise: Identify measured pIC50 associated with C[C@@H]1[C@H](N2Cc3cc(C4CC4)ccc3C2=O)CCCN1c1cnc(C(N)=O)c(Nc2cnn(C)c2)n1 [Example D-36]
Key: 6.00 to 7.00

The measured values listed here are drawn from patent US20210070748A1.
